Ref: the supplement of paper PMC10883282

tested on: SK-LMS-1; assay: relative viability vs DMSO control (72 h) (fraction); higher = more viable cells; details: 0.04115 µM
Endpoint: relative viability
I'd appreciate a reply containing only the number, no unit.

What the record says about C[C@]1(O)C[C@@H](c2nc(-c3ccc4ccc(-c5ccccc5)nc4c3)c3c(N)nccn32)C1 : relative viability is 1.01

What the record says about COCc1c(-c2cc3cc(C)cc(OC)c3s2)c2c(N)ncnn2c1CN1CCNC(=O)C1 : relative viability is 0.992

What the record says about CCCS(=O)(=O)Nc1ccc(F)c(C(=O)c2c[nH]c3ncc(-c4ccc(Cl)cc4)cc23)c1F : relative viability is 0.979

What the record says about Cc1nc(NC(=O)N2CCC[C@H]2C(N)=O)sc1-c1ccnc(C(C)(C)C(F)(F)F)c1 : relative viability is 0.951

What the record says about CNC(=O)c1cc(Oc2ccc(NC(=O)Nc3ccc(Cl)c(C(F)(F)F)c3)c(F)c2)ccn1 : relative viability is 1.08

What the record says about CNC(=O)c1ccc(-c2cnc3ncc(Cc4ccc5ncccc5c4)n3n2)cc1F : relative viability is 0.536

---

test system: MES-SA; assay: standardised AUC of viability dose-response curve (72 h) (fraction (0-1)); higher = less growth inhibition (more resistant)
Hi there, I'd appreciate the recorded standardised AUC for every entry that follows.
I'd appreciate a reply containing only the number, no unit.

What the record says about CCCS(=O)(=O)Nc1ccc(F)c(C(=O)c2c[nH]c3ncc(-c4ccc(Cl)cc4)cc23)c1F : standardised AUC is 0.956

What the record says about CNC(=O)c1cc(Oc2ccc(NC(=O)Nc3ccc(Cl)c(C(F)(F)F)c3)c(F)c2)ccn1 : standardised AUC is 0.934

What the record says about Cc1cc(Nc2ncnc3ccc(NC4=NC(C)(C)CO4)cc23)ccc1Oc1ccn2ncnc2c1 : standardised AUC is 0.946

What the record says about COc1c(OCCCN2CCOCC2)ccc2c1N=C(NC(=O)c1cnc(N)nc1)N1CCN=C21 : standardised AUC is 0.474

What the record says about CN1CCN(c2ccc3nc(-c4c(N)c5c(F)cccc5[nH]c4=O)[nH]c3c2)CC1 : standardised AUC is 0.81

What the record says about COc1cc2/c(=N/c3ccc(Br)cc3F)nc[nH]c2cc1OCC1CCN(C)CC1 : standardised AUC is 0.912

What the record says about Nc1cc(C(F)(F)F)c(-c2cc(N3CCOCC3)nc(N3CCOCC3)n2)cn1 : standardised AUC is 0.753

---

Hi there, I'd appreciate the recorded relative viability for every entry that follows.
system: SW872; assay: relative viability vs DMSO control (72 h) (fraction); higher = more viable cells; details: 1.111 µM
I'd appreciate a reply containing only the number, no unit.

What the record says about CN1CCC(COc2cnc(-c3cccc(Cn4nc(-c5cccc(C#N)c5)ccc4=O)c3)nc2)CC1 [Tepotinib] : relative viability is 0.999

What the record says about CC1(C)CNc2cc(NC(=O)c3cccnc3NCc3ccncc3)ccc21 [Motesanib] : relative viability is 0.978

What the record says about Cc1ccc(F)c(NC(=O)Nc2ccc(-c3cccc4[nH]nc(N)c34)cc2)c1 [Linifanib] : relative viability is 1.02

What the record says about CN1CCN(c2ccc3nc(-c4c(N)c5c(F)cccc5[nH]c4=O)[nH]c3c2)CC1 [Dovitinib] : relative viability is 0.604
